// provenance: ChEMBL document CHEMBL3244267

System: Mus musculus
Experiment: Toxicity in mouse Sarcoma 180 cells allografted CD-1 mouse assessed as change in body weight at 80 mg/kg, ip qd for 6 consecutive days starting 24 hrs post implantation (reference value: +13.5 %)
Type: organism-based
Parameters: dose 80 mg/kg, route intraperitoneal
Settings: in vivo
Assign class by Activity: not lower than 10% means true; lower than 10% means false.

- SUBSTANCE SMILES: "Cc1ccc(S(=O)(=O)N/N=C/c2cccn[n+]2[O-])cc1"
  CLASS ASSIGNMENT: "false"
- SUBSTANCE SMILES: "COc1ccc(S(=O)(=O)N/N=C/c2cccn[n+]2[O-])cc1"
  CLASS ASSIGNMENT: "false"
- SUBSTANCE SMILES: "O=S(=O)(N/N=C/c1ccnc[n+]1[O-])c1ccccc1"
  CLASS ASSIGNMENT: "false"
- SUBSTANCE SMILES: "O=S(=O)(N/N=C/c1cccn[n+]1[O-])c1ccccc1"
  CLASS ASSIGNMENT: "false"
- SUBSTANCE SMILES: "Cc1ccc(S(=O)(=O)N/N=C/c2ccnc[n+]2[O-])cc1"
  CLASS ASSIGNMENT: "true"
- SUBSTANCE SMILES: "COc1ccc(S(=O)(=O)N/N=C/c2ccnc[n+]2[O-])cc1"
  CLASS ASSIGNMENT: "true"
